- test.target: His6-JNK1α1 (UniProt P45983-2 1-384)
- measurement.description: fluorescence polarisation
TMR = 6-carboxytetramethylrhodamine
value.type: pKd
pKd here: minus log base 10 of the concentration, concentration in moles per litre.

Input: I'd like to know its pKd. The binder in question is {TMR}-RPKRPTTLNLF-OH [TMR-JIPtide]
Output: 5.82
